Molecular target: FRMPD4, Q14CM0
Sequence (Q14CM0 67-160): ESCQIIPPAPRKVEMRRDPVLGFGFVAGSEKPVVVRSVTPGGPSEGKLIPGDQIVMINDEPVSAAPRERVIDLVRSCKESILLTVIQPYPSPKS
Assay: holdup assay
Parameters: key: below the threshold = too weak to quantify, mostly under pKd 3.1 to 4
Conditions: plain residues with an end cap or a label only (N-terminal biotin on a linker: ado-ado)
readout_kind: pKd

Worked examples, 5 binders total:
[
  {
    "binder": "YLEPVLSSEL [ATP2A2, P16615;P16615-3]",
    "measurement": "below the threshold"
  },
  {
    "binder": "GQEEQVTTRL [TRPC5, Q9UL62]",
    "measurement": 4.29
  },
  {
    "binder": "PRAEAEDSFL [PDGFRB, P09619]",
    "measurement": 4.57
  },
  {
    "binder": "LSEFKAMDSI [CTNNA1, P35221]",
    "measurement": "below the threshold"
  },
  {
    "binder": "PEYLGLDVPV [ERBB2, P04626]",
    "measurement": 4.39
  }
]

Now for a further binder.
Query EALLQMESVA [CAVIN3, Q969G5] yields pKd of below the threshold
